B1: ANKRD44 (parent)
chain: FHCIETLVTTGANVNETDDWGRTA

Variants of: B1
Assay: protein stability index of a GFP-peptide fusion (GPS, HEK-293T) (PSI 1-6); higher = more stable;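 also: lentivirally expressed fusions sorted by FACS into six bins by GFP to DsRed ratio, PSI derived from sequencing read proportions per bin multiplied by bin number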
Details: c terminus: a fixed tail appended
QUANTITY: protein stability index
Give a plain numeric answer without units written out.

As a guide, the following entries are already answered.
{"MUT": "W20P", "protein stability index": 2.61}
{"MUT": "F1K", "protein stability index": 4.18}
{"MUT": "A12C", "protein stability index": 1.1}
{"MUT": "V8E", "protein stability index": 3.35}
{"MUT": "D19H", "protein stability index": 1.73}
{"MUT": "G21N", "protein stability index": 1.68}
{"MUT": "D18P", "protein stability index": 1.71}
{"MUT": "G21P", "protein stability index": 1.98}
{"MUT": "H2L", "protein stability index": 2.31}
{"MUT": "A24K", "protein stability index": 2.46}

Task item: Given the entry T9C , report its measured protein stability index.
Reply: 1.78

Task item: Name the recorded protein stability index for T10C .
Reply: 1.96

Task item: Name the recorded protein stability index for G11Q .
Reply: 1.74

Task item: So what does the record say about protein stability index for T10Y ?
Reply: 2.14

Task item: Quick check: protein stability index of N13Y ?
Reply: 1.68
